Tested on: HCT116
Procedure summary: efficacy (fitted maximal change in viability relative to DMSO control); higher = less cytotoxic (negative = loss of viability)
Condition notes: 48 h
Structures can show the parent of a compound that is named as a salt.
Please provide measured efficacy for the entries that follow.
Note to self: number, then unit, no commentary.

For Cc1cccc(CN2CCN(C(c3ccccc3)c3ccc(Cl)cc3)CC2)c1 (configuration not stated) [Meclizine hydrochloride] , what is its reported efficacy? -43.1%

For Cc1c(CN2CCN(C(=O)[C@H](C)O)CC2)sc2c(N3CCOCC3)nc(-c3cnc(N)nc3)nc12 , what is its reported efficacy? -57.1%

For NC12CC3CC(CC(C3)C1)C2 [Amantadine hydrochloride] , what is its reported efficacy? -15.1%

Items follow; give efficacy for each.
1. Cc1c(Cn2c(C)nc3c(C(=O)O)cc(N4CCOCC4)cc32)cccc1C(F)(F)F
2. N#Cc1ccnc(Nc2cc(C3CCN(C4COC4)CC3)cc(N3CCC(F)(F)C3)n2)c1
3. COc1cc(F)c(C(C)C)cc1-c1ccc(C(F)(F)F)cc1CN1C(=O)O[C@H](c2cc(C(F)(F)F)cc(C(F)(F)F)c2)[C@@H]1C
4. C[C@H]1Oc2cc(cnc2N)-c2c(nn(C)c2C#N)CN(C)C(=O)c2ccc(F)cc21

["-10.9%", "-77.1%", "-14.3%", "-33.7%"]

* * *

System: HCT116;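 also: Luminescence-based viability readout, five doses per compound, normalized against on-plate DMSO and empty-well controls, followed by dose-response curve fitting for every drug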
Procedure summary: efficacy (fitted maximal change in viability relative to DMSO control); higher = less cytotoxic (negative = loss of viability)
Condition notes: 48 h
Structures can show the parent of a compound that is named as a salt.
Output 1 (yes) for efficacy not less than -80%; output 0 (no) otherwise.

Study these solved cases before continuing.
Decide: is the reported value of efficacy for CCc1ccc(N(CC(C)C)[S+](=O)([O-])c2ccc(OCC3CCOCC3)c(CO)c2)cc1 equal to or greater than -80%? 0 (no)

Decide: is the reported value of efficacy for O=C1NC(=O)/C(=C/c2ccc3c(c2)OC(F)(F)O3)S1 equal to or greater than -80%? 1 (yes)

Decide: is the reported value of efficacy for CN(Cc1ccc(/C=C/C(=O)NO)cc1)CC12CC3CC(CC(C3)C1)C2 equal to or greater than -80%? 0 (no)

Continuing:
Decide: is the reported value of efficacy for C[C@@H]\1CC(=O)N\N=C1C2=CC=C(NN=C(C#N)C#N)C=C2 equal to or greater than -80%? 1 (yes)

Decide: is the reported value of efficacy for Cc1cnc(NC(=O)Nc2cc(Br)c(C)cc2OC[C@@H]2CNCCO2)cn1 equal to or greater than -80%? 0 (no)

Decide: is the reported value of efficacy for CN(C)CCCN\C1=C\2C(=O)N(C)C(=O)\N=C2N(C)C3=C1C=CC=C3 equal to or greater than -80%? 1 (yes)

Decide: is the reported value of efficacy for CC(/C=C/[C@@H]1C[C@]1(C)c1ccc2c(c1)C(C)(C)CCC2(C)C)=C\C(=O)O equal to or greater than -80%? 1 (yes)

Decide: is the reported value of efficacy for CC1(C)OC/2=C(\[C@H](NCC3=CC=CC=C3)[C@@H]1O)C(=O)C4=CC=CC=C4C2=O equal to or greater than -80%? 0 (no)

Decide: is the reported value of efficacy for COC1=CC2=C(OC\C(=C2\C3=CC=C(F)C=C3)CN4CCCC4)C=C1 equal to or greater than -80%? 1 (yes)

Decide: is the reported value of efficacy for CC1(C)CCC(=C(CN2CCN(CC2)C3=CC=C(C=C3)C(=O)N[S+]([O-])(=O)C4=CC(=C(N[C@H](CCN5CCOCC5)CSC6=CC=CC=C6)C=C4)[S+]([O-])(=O)C(F)(F)F)\C1)/C7=CC=C(Cl)C=C7 equal to or greater than -80%? 0 (no)

Decide: is the reported value of efficacy for C[C@H]1CN(CCN1C2=CN=C(NC/3=C/C(=C\N(C)C3=O)C4=CC=NC(=C4CO)N5CC[N]6C7=C(CC(C)(C)C7)C=C6C5=O)C=C2)C8COC8 equal to or greater than -80%? 1 (yes)

Decide: is the reported value of efficacy for Nc1nccc(-c2c(-c3ccc(F)cc3)ncn2C2CCCCC2)n1 equal to or greater than -80%? 1 (yes)

Decide: is the reported value of efficacy for COC1=C(OCCCN2CCOCC2)C=CC\3=C1/N=C(/NC(=O)C4=CN=C(N)N=C4)N5CC/N=C35 equal to or greater than -80%? 1 (yes)

Decide: is the reported value of efficacy for CCOC(=O)\C1=C(/C)N\C2=C(C1C3=CC=C(C=C3)C4=CC=CC=C4)\C(=O)CC(C)(C)C2 (configuration not stated) equal to or greater than -80%? 1 (yes)

Decide: is the reported value of efficacy for NC1(CCC1)C2=CC=C(C=C2)C3=C(C=C/4C(=N3)\C=C/N5C(=O)N\N=C45)C6=CC=CC=C6 equal to or greater than -80%? 0 (no)

Decide: is the reported value of efficacy for CC(C)(C)NCC(O)c1ccc(O)c(CO)c1 (configuration not stated) [Salbutamol sulfate] equal to or greater than -80%? 1 (yes)
